Experiment: NCI Yeast Anticancer Drug Screen. Data for the bub3 strain (AID 167)
Details: S. cerevisiae bub3 mutant strain, at 5.0 µM (retest, dose inferred, filed as 0.5)
The panel holds about 79,000 compounds, 15% with a hit somewhere; the sample as a whole holds those more often. Activity calls are given as the source filed them. Cut-off read from the data, not from the text of the source: active = growth inhibition above about 70%; inactive = the rest.
Classes used: 1 (yes) (active), 0 (no) (inactive)

compound	group
CC1(C)OC2C(COC(c3ccccc3)(c3ccccc3)c3ccccc3)OC(n3cnc4c(N)ncnc43)C2O1 (configuration not stated)	0 (no)
C1=Nc2ccccc2C=Nc2ccccc2C=Nc2ccccc2C=Nc2ccccc21.[Cl-].[Pt+2]	1 (yes)
Cc1ccc(N2C(=O)C(Cl)=C(Cl)C2=O)cc1	0 (no)
COc1cccc(/C=N/N(C)C)c1O	0 (no)
O=C(N=Nc1cccc(Cl)c1)NNc1cccc(Cl)c1	0 (no)
COC(=O)c1c2oc3c(C(=O)OC)cccc3nc-2cc(N)c1=O	0 (no)
CCn1c2ccccc2c2ccc(N=Nc3ccc(N(C)C)cc3)cc21	0 (no)
c1ccc2cc3nc4ccccc4nc3cc2c1	0 (no)
COc1cc(/C=C/C2=C(C)C(=O)CC(c3cc(OC)c(OC)c(OC)c3)C2C)cc(OC)c1OC (configuration not stated)	0 (no)
CS(=O)(=O)OCCN(CCOS(C)(=O)=O)c1ccc(C=Nc2ccc3oc(=O)ccc3c2)cc1	0 (no)
OC12C3C4CC5C(C4[C@@H]1Br)C2[C@@](O)(c1c(F)c(F)c(F)c(F)c1F)C53 (some centres not stated)	0 (no)
COC(=O)N/N=C(\C)C(CN1CCOCC1)C(c1ccccc1)c1cc2ccccc2oc1=O (configuration not stated)	0 (no)
O=C(NNc1nc(-c2ccccc2)cs1)C(F)(F)F	1 (yes)
COC1=C(C)C(=O)C2=C(C1=O)C1C3CC4=C(C(=O)C(OC)=C(C)C4=O)C(CNC(=O)C(C)=O)N3C(C#N)C(C2)N1C (configuration not stated)	0 (no)
COc1cccc(C2c3cc4c(cc3OC(N3CCCC3)C2c2ccccc2)OCO4)c1O (configuration not stated)	0 (no)
CC(C)CC(NC(=O)SCc1ccccc1)C(=O)O (configuration not stated)	0 (no)
CCCCCCCCCCN1Cc2ccccc2C1	1 (yes)
O=C(Nc1c(Cl)cccc1Cl)OCc1ccc2c(c1)OCO2	0 (no)
OC1CCCCC1Cc1ccc(Cl)cc1 (configuration not stated)	0 (no)
Cc1c(-c2ccccc2)ccnc1/C=N/NC(=S)Nc1ccccc1	0 (no)
O=C1C=CC(=O)c2cc(Sc3ccccc3)c(=O)ccc21	0 (no)
c1ccc(NN=C(c2ccccc2)c2ccccc2)cc1	0 (no)

----------
Experiment: NCI Yeast Anticancer Drug Screen. Data for the cln2 rad14 strain (AID 165);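 note: 0% = growth equal to vehicle treated cultures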
Conditions: S. cerevisiae cln2 rad14 strain, at 50.0 µM
Experimental: Growth inhibition of yeast strains with defined genetic alterations is measured as a screen for potential anti-cancer activity. Selected strains with alterations in DNA damage repair or cell cycle control were exposed to compounds and growth inhibition was measured relative to vehicle treated controls. The strain used in this assay is cln2 rad14
Compounds without any hit were thinned out: in the full panel of roughly 79,000, 15% have a hit. The source made the active and inactive calls. No stated cut-off is given here; in the data, active means growth inhibition above about 70%; inactive means the rest.
Classes used: active, inactive

compound	group
CC1CCC2(OC1)OC1CC3C4CCC5CC(OC6OC(COC7OC(CO)C(O)C(O)C7O)C(OC7OC(C)C(O)C(O)C7O)C(O)C6OC6OC(CO)C(O)C(O)C6O)CCC5(C)C4CCC3(C)C1C2C (stereo not drawn)	active
c1ccc([P+](CCCCCC[P+](c2ccccc2)(c2ccccc2)c2ccccc2)(c2ccccc2)c2ccccc2)cc1	active
COc1ccccc1C1c2cc3c(cc2OC2(OC)COC(=O)C12)OCO3 (stereo not drawn)	inactive
OCC1CCc2[nH]c3ccccc3c2C1 (stereo not drawn)	inactive
CN(C)C1CCC2C(=C1OC(=O)c1ccccc1)C=Cc1ccccc12 (stereo not drawn)	inactive
O=C(CC(O)(CC(=O)OCc1ccccc1)C(=O)OCc1ccccc1)OCc1ccccc1	active
Cc1cc(Cl)ccc1C(=O)c1ccc2ccccc2c1C(=O)O	active
S=C(N/N=C(/c1ccccc1)c1ccccn1)N1CCCCC1	active
CN(C)C1CCC2C3CCC4=CC(=O)CCC4(C)C3CCC21C (stereo not drawn)	inactive
Nc1ccccc1CC(c1c[nH]c2ccccc12)c1c[nH]c2ccccc12	active
Cc1cc(C2C(O)C(c3cc(C)on3)C2(C)O)no1 (stereo not drawn)	inactive
CC(=O)c1ccc(Cl)c(N=Cc2cc(Br)ccc2O)c1	inactive
Nc1nc(=O)n(C2OC(CO)C(O)C2O)cc1[N+](=O)[O-] (stereo not drawn)	inactive
Cc1ccc(C(=O)/C=C/c2ccco2)c(C)c1	inactive
O=C(O)/C=C/c1ccc(Cl)c(Cl)c1	inactive
CCC(=O)OC1CCC(C2CCCCC2)CC1 (stereo not drawn)	inactive
Clc1ccc(CN2COc3c(cc(Cl)c4cccnc34)C2)cc1	active
Oc1cccc2cc(Br)cnc12	active
c1ccc(-c2n[nH]c3c4ccccc4c4ccccc4c23)cc1	active
Cc1nc(N)sc1N=Nc1ccccc1Br	active
CCC(CC=C(C)C)(CC=C(C)C)c1ccncc1 (tested in a mixture with another compound)	active
COC1=CC(=O)c2ncc(Cl)cc2C1=O	active
NNc1ccc(Br)cc1	active
